Readings of log10(Ki) for the listed compounds
# assayed-system: integrins haα4 and β1 (VLA-4) expressed on CHO cells (Homo sapiens, UniProt P05556+P13612)
# Sequence (P13612 34-1032): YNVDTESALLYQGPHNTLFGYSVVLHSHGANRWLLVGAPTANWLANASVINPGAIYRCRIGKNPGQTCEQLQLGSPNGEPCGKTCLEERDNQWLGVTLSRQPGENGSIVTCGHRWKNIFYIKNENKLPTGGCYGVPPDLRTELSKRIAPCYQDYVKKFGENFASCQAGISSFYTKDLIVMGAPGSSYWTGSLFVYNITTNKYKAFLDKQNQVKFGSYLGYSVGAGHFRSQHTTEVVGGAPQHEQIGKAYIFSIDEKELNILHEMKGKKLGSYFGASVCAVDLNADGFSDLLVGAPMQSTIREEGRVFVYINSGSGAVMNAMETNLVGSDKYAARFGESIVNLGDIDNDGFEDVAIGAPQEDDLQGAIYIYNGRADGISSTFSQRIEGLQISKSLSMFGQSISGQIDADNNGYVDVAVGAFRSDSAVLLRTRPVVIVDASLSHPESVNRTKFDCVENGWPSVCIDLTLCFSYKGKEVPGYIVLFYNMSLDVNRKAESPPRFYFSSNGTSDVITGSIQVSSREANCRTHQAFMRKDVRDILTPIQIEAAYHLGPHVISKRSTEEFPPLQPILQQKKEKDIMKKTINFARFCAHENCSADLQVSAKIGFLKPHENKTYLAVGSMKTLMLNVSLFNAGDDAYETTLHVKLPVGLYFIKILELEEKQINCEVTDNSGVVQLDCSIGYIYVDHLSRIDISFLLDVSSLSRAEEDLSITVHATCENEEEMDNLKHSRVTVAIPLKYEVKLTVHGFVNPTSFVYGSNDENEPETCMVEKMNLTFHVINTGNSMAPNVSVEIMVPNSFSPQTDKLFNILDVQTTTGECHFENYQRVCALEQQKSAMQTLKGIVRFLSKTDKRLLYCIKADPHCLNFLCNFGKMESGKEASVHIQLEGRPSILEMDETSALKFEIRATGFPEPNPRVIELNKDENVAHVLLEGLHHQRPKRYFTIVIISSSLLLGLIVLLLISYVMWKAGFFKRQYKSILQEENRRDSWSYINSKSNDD
# Sequence (P05556 21-798): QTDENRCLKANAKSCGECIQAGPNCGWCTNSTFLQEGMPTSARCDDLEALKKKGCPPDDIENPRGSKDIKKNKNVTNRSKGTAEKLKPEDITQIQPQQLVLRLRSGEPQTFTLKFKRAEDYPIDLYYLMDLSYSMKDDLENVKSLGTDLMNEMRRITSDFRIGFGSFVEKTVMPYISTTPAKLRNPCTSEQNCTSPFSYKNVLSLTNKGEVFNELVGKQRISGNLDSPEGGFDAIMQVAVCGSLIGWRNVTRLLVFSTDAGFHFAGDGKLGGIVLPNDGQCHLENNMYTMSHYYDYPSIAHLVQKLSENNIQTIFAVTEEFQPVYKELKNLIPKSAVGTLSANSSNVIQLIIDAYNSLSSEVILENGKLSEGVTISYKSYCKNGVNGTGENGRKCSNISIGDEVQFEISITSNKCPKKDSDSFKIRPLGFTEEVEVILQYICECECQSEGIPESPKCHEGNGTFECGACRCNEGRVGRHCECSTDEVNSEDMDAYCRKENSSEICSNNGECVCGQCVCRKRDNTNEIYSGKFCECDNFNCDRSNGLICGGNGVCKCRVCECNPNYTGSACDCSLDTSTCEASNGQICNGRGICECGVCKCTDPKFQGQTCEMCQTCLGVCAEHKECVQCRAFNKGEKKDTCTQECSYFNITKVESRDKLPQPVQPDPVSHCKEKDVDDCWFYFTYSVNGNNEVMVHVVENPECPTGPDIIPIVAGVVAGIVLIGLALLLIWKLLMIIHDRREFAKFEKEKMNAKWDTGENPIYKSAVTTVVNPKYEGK
# experimental-details: In vitro Evaluation Test (1): binding of Eu3+-hVCAM-1 D1D7-IgG to CHO cells expressing integrins α4 and β1
# details: inhibition of Eu3+-hVCAM-1 D1D7-IgG binding to CHO cells expressing α4β1; Ki calculated from IC50
Scale type: logarithmic (base 10). Underlying Ki unit: nM.

Examples with answers:
### Prompt Output reported log10(Ki) of the compound O=C(Nc1cc(F)c(CC(=O)N2C[C@@H](F)C[C@H]2CO[C@H]2CC[C@H](C(=O)O)CC2)cc1Cl)c1nsc2ccccc12 on integrins haα4 and β1 (VLA-4) expressed on CHO cells (Homo sapiens, UniProt P05556+P13612).
### Response 0.81

### Prompt Output reported log10(Ki) of the compound COC[C@@H]1C[C@@H](Oc2ccc(C(=O)O)cc2)CN1C(=O)Cc1ccc2nc(Nc3cc(F)ccc3C)oc2c1F on integrins haα4 and β1 (VLA-4) expressed on CHO cells (Homo sapiens, UniProt P05556+P13612).
### Response 1.67

### Prompt Output reported log10(Ki) of the compound C=CCO[C@H]1C[C@@H](CO[C@H]2CC[C@H](C(=O)O)CC2)N(C(=O)Cc2cc(Cl)c(NC(=O)c3cn(C)c4ccccc34)cc2F)C1 on integrins haα4 and β1 (VLA-4) expressed on CHO cells (Homo sapiens, UniProt P05556+P13612).
### Response 0.71

New cases:
### Prompt Output reported log10(Ki) of the compound Cn1cc(C(=O)Nc2cc(F)c(CC(=O)N3CC(F)(F)C[C@H]3CO[C@H]3CC[C@H](C(=O)O)CC3)cc2Cl)c2ccccc21 (mixture of isomers) on integrins haα4 and β1 (VLA-4) expressed on CHO cells (Homo sapiens, UniProt P05556+P13612).
### Response 1.23

### Prompt Output reported log10(Ki) of the compound Cc1cccc2oc(Nc3ccc(CC(=O)N4C[C@@H](F)C[C@H]4CO[C@H]4CC[C@H](C(=O)O)CC4)cc3Cl)nc12 on integrins haα4 and β1 (VLA-4) expressed on CHO cells (Homo sapiens, UniProt P05556+P13612).
### Response 1.00

### Prompt Output reported log10(Ki) of the compound CS[C@H]1C[C@@H](CO[C@H]2CC[C@H](C(=O)O)CC2)N(C(=O)Cc2ccc3nc(Nc4cc(F)ccc4C)oc3c2F)C1 on integrins haα4 and β1 (VLA-4) expressed on CHO cells (Homo sapiens, UniProt P05556+P13612).
### Response 0.30

### Prompt Output reported log10(Ki) of the compound Cc1ccccc1Nc1nc2ccc(CC(=O)N3CCC[C@H]3COC3CCC(C(=O)O)CC3)cc2o1 (single isomer, unassigned) [22 (Isomer B)] on integrins haα4 and β1 (VLA-4) expressed on CHO cells (Homo sapiens, UniProt P05556+P13612).
### Response 0.54

* * *

# assayed-system: integrins haα4 and β1 (VLA-4) expressed on CHO cells (Homo sapiens, UniProt P05556+P13612)
# experimental-details: In vitro Evaluation Test (1): binding of Eu3+-hVCAM-1 D1D7-IgG to CHO cells expressing integrins α4 and β1
# details: inhibition of Eu3+-hVCAM-1 D1D7-IgG binding to CHO cells expressing α4β1; Ki calculated from IC50
value-type: Ki (nM)
Kindly provide the numeric value in nM only, without the unit symbol.

Examples with answers:
### Prompt Report Ki for O=C(O)C1CCC(OC[C@@H]2C[C@H](F)CN2C(=O)Cc2ccc3nc(Nc4ccccc4Cl)oc3c2)CC1 (single isomer, unassigned) [24 (Isomer A)]
### Response 14

### Prompt Report Ki for O=C(Nc1cc(F)c(CC(=O)N2C[C@@H](F)C[C@H]2CO[C@H]2CC[C@H](C(=O)O)CC2)cc1Cl)N1CCc2ccccc21
### Response 2

### Prompt Report Ki for COC[C@H]1C[C@@H](CO[C@H]2CC[C@H](C(=O)O)CC2)N(C(=O)Cc2cc(Cl)c(NC(=O)c3cn(C)c4ccccc34)cc2F)C1
### Response 15

### Prompt Report Ki for CS[C@H]1C[C@@H](CO[C@H]2CC[C@H](C(=O)O)CC2)N(C(=O)Cc2cc(Cl)c(NC(=O)c3cn(C)c4ccccc34)cc2F)C1
### Response 6.5

### Prompt Report Ki for Cn1cc(C(=O)Nc2ccc(CC(=O)N3C[C@@H](F)C[C@H]3COC3CCC(C(=O)O)CC3)cc2Cl)c2ccccc21 (some centres unmarked)
### Response 2.1

New cases:
### Prompt Report Ki for O=C(Cc1ccc(Nc2nc3ccccc3s2)c(Cl)c1)N1C[C@@H](F)C[C@H]1CO[C@H]1CC[C@H](C(=O)O)CC1
### Response 2.1

* * *

Readings of Ki for the listed compounds
# assayed-system: integrins haα4 and β1 (VLA-4) expressed on CHO cells (Homo sapiens, UniProt P05556+P13612)
# experimental-details: In vitro Evaluation Test (1): binding of Eu3+-hVCAM-1 D1D7-IgG to CHO cells expressing integrins α4 and β1
# details: inhibition of Eu3+-hVCAM-1 D1D7-IgG binding to CHO cells expressing α4β1; Ki calculated from IC50
The number alone won't do; follow it with the unit.

Examples with answers:
### Prompt Output reported Ki of the compound O=C(Cc1ccc2nc(-c3nccc4ccccc34)oc2c1)N1C[C@@H](F)C[C@H]1CO[C@H]1CC[C@H](C(=O)O)CC1 [Example 102] on integrins haα4 and β1 (VLA-4) expressed on CHO cells (Homo sapiens, UniProt P05556+P13612).
### Response 47 nM

### Prompt Output reported Ki of the compound O=C(Cc1ccc(Nc2nc3cc(F)ccc3s2)c(Cl)c1)N1C[C@@H](F)C[C@H]1CO[C@H]1CC[C@H](C(=O)O)CC1 [Example 62] on integrins haα4 and β1 (VLA-4) expressed on CHO cells (Homo sapiens, UniProt P05556+P13612).
### Response 3.4 nM

### Prompt Output reported Ki of the compound Cn1nc(C(=O)Nc2cc(F)c(CC(=O)N3C[C@@H](S(C)(=O)=O)C[C@H]3CO[C@H]3CC[C@H](C(=O)O)CC3)cc2Cl)c2ccccc21 [Example 129] on integrins haα4 and β1 (VLA-4) expressed on CHO cells (Homo sapiens, UniProt P05556+P13612).
### Response 1.5 nM

New cases:
### Prompt Output reported Ki of the compound COC[C@@H]1C[C@@H](O[C@H]2CC[C@H](C(=O)O)CC2)CN1C(=O)Cc1ccc2nc(Nc3cc(F)ccc3C)oc2c1F [Example 156] on integrins haα4 and β1 (VLA-4) expressed on CHO cells (Homo sapiens, UniProt P05556+P13612).
### Response 43 nM

### Prompt Output reported Ki of the compound Cn1cc(C(=O)Nc2ccc(CC(=O)N3C[C@@H](F)C[C@H]3COc3ccc(C(=O)O)cc3)cc2Cl)c2ccccc21 [Example 147] on integrins haα4 and β1 (VLA-4) expressed on CHO cells (Homo sapiens, UniProt P05556+P13612).
### Response 40 nM

### Prompt Output reported Ki of the compound O=C(Cc1ccc(Nc2nc3cccc(F)c3o2)c(Cl)c1)N1C[C@@H](F)C[C@H]1CO[C@H]1CC[C@H](C(=O)O)CC1 [Example 53] on integrins haα4 and β1 (VLA-4) expressed on CHO cells (Homo sapiens, UniProt P05556+P13612).
### Response 32 nM

### Prompt Output reported Ki of the compound Cn1cc(C(=O)Nc2cc(F)c(CC(=O)N3C[C@@H](F)C[C@H]3CO[C@H]3CC[C@H](C(=O)O)CC3)cc2F)c2ccccc21 [Example 71] on integrins haα4 and β1 (VLA-4) expressed on CHO cells (Homo sapiens, UniProt P05556+P13612).
### Response 18 nM

* * *

Readings of Ki for the listed compounds
# assayed-system: integrins haα4 and β1 (VLA-4) expressed on CHO cells (Homo sapiens, UniProt P05556+P13612)
# experimental-details: In vitro Evaluation Test (1): binding of Eu3+-hVCAM-1 D1D7-IgG to CHO cells expressing integrins α4 and β1
# details: inhibition of Eu3+-hVCAM-1 D1D7-IgG binding to CHO cells expressing α4β1; Ki calculated from IC50
# Description: CHO cells forcedly expressed by the transduction of integrins haα4 and β1 were seeded in a Coster 3599 plate (3×10^4 cells/100 μl/well) and they were cultured for 2 days. After the medium was washed with buffer A* twice, 50 μl/well of Eu^3+-hVCAM-1 D1D7-IgG diluted to […] with an assay buffer ** was added. […] The plate was shaken for 5 minutes on a plate mixer, followed by measurement of fluorescence intensity by a time-resolved fluorometer (DELFIA Wallac). […] The value Ki was calculated based on: […]
Kindly provide the numeric value in µM only, without the unit symbol.

### Prompt Report Ki for Cn1cc(C(=O)Nc2cc(F)c(CC(=O)N3C[C@@H](F)C[C@H]3CN[C@H]3CC[C@H](C(=O)O)CC3)cc2Cl)c2ccccc21 [Example 107]
### Response 0.011

New cases:
### Prompt Report Ki for O=C(O)C1CCC(OC[C@@H]2C[C@H](F)CN2C(=O)Cc2ccc(NC(=O)N3CCc4ccccc43)c(Cl)c2)CC1 (stereo partly shown) [Example 36]
### Response 0.0015

### Prompt Report Ki for Cc1ccccc1Nc1nc2ccc(CC(=O)N3C[C@@H](F)C[C@H]3COc3ccc(C(=O)O)cc3)cc2o1 [Example 2]
### Response 0.017

### Prompt Report Ki for O=C(O)C1CCC(OC[C@@H]2C[C@H](F)CN2C(=O)Cc2ccc3nc(Nc4ccccc4Br)oc3c2)CC1 (single isomer, unassigned) [25 (Isomer A)]
### Response 0.018

### Prompt Report Ki for Cc1ccc(F)cc1Nc1nc2ccc(CC(=O)N3C[C@@H](F)C[C@H]3COc3ccc(C(=O)O)cc3)cc2o1 [Example 146]
### Response 0.021

### Prompt Report Ki for O=C(Cc1ccc2nc(N3CCc4ccccc43)oc2c1)N1C[C@@H](F)C[C@H]1CO[C@H]1CC[C@H](C(=O)O)CC1 [Example 104]
### Response 0.02

### Prompt Report Ki for COC[C@@H]1CC[C@@H](CO[C@H]2CC[C@H](C(=O)O)CC2)N1C(=O)Cc1ccc2nc(Nc3cc(F)ccc3C)oc2c1F [Example 167]
### Response 0.00087
